Data provenance: the supplement of paper PMC8728848

# Target desc: Gal3S(b1-4)Glc6S
# Assay: glycan array binding signal (z-score within array); higher = stronger binding
# Condition notes: glycan notation: IUPAC condensed, linker removed
This excerpt belongs to a sample that is enriched for the strongest signals.
Experimental readout: glycan array binding signal (z-score)
Numbers only.

INSERT INTO results (binder, readout_number) VALUES
  ('Mermaid3 (Stilbonema majum) (protein) MGSSHHHHHHSSGLVPRGSHMAASGWLRSPQGTVVKLYRRSLSWSKADEFCKDVDGRLVVDRTADMHLFLIKNVLKEKKSRVWVGLRRTASHSRTWIWSDGTRQNEGDLDANLWLRDEPNDAAGEEECALFMYSPWEKAWGLNDYLCRGGCRNYQFICEKWIR', -0.077);

Then there is this binder:
Q: # input binder: MFG-E8 (Homo sapiens), Q08431 (protein) MPRPRLLAALCGALLCAPSLLVALDICSKNPCHNGGLCEEISQEVRGDVFPSYTCTCLKGYAGNHCETKCVEPLGLENGNIANSQIAASSVRVTFLGLQHWVPELARLNRAGMVNAWTPSSNDDNPWIQVNLLRRMWVTGVVTQGASRLASHEYLKAFKVAYSLNGHEFDFIHDVNKKHKEFVGNWNKNAVHVNLFETPVEAQYVRLYPTSCHTACTLRFELLGCELNGCANPLGLKNNSIPDKQITASSSYKTWGLHLFSWNPSYARLDKQGNFNAWVAGSYGNDQWLQVDLGSSKEVTGIITQGARNFGSVQFVASYKVAYSNDSANWTEYQDPRTGSSKIFPGNWDNHSHKKNLFETPILARYVRILPVAWHNRIALRLELLGC ; wanted: its glycan array binding signal (z-score)
Result: 6.38
